Data origin, for the record: patent US20080058400A1

# System: Human normal epidermal keratinocytes
# test: Amino acid deficient medium culturing test
# Type: cell-based
# condition.set: number of cells; named amino acid reduced to 10% by weight of general MCDB 153 medium concentration; 5 days culture; non-deficient medium = 100
# Protocol: Human normal epidermal keratinocytes (Sanko Junyaku) were used as the cells. […] The cells were pre-cultured at 37° C., under an atmosphere of 5% (v/v) CO2 until they became a semi-confluent state. The keratinocytes cultured under a growing state in a T 75 flask were used. […] The thus obtained cell pellet was suspended in 2 ml of the medium, and the number of cells was counted. […]
parameter.measured: Relative ratio
// no unit string in output, number only

CSCC[C@H](N)C(=O)O | 12

What measured Relative ratio goes with `CC(C)[C@H](N)C(=O)O` ? 9

###

# System: Human normal epidermal keratinocytes
# test: Amino acid deficient medium culturing test
# Format: cell-based
# condition.set: number of cells; named amino acid reduced to 10% by weight of general MCDB 153 medium concentration; 5 days culture; non-deficient medium = 100
Here, each record is paired with measured Relative ratio data.
// no unit string in output, number only

What measured Relative ratio goes with NC(=O)C[C@H](N)C(=O)O [Asparagine] ? 13

What measured Relative ratio goes with C[C@H](N)C(=O)O [Alanine] ? 14

What measured Relative ratio goes with N[C@@H](CO)C(=O)O [Serine] ? 6

What measured Relative ratio goes with N[C@@H](Cc1ccccc1)C(=O)O [Phenylalanine] ? 4

###

# Tested on: abdominal skin of male hairless mice
# Method: The skin sample was attached to a Keshany-Chien type diffusion cell. A 1 ml portion of each test liquid (described later) was added to the donor phase, and its upper side was sealed with Para Film. A 0.01 mol/l phosphate buffered saline (Wako Pure Chemical Industries) was added to the receptor phase, stirred and incubated at 32° C., and amounts of amino acids were determined by an HPLC method 24 hours later to calculate permeation ratio. […]
parameter.measured: Permeability of each amino acid (%)
Could you give me the number in %? Just the number is fine.

// solved cases for Permeability of each amino acid follow
C[C@@H](O)[C@H](N)C(=O)O | 19.3
N[C@@H](Cc1c[nH]c2ccccc12)C(=O)O | 3.6
NC(=O)C[C@H](N)C(=O)O | 14.2

What measured Permeability of each amino acid goes with `N[C@@H](Cc1c[nH]cn1)C(=O)O` ? 15.2

What measured Permeability of each amino acid goes with `CSCC[C@H](N)C(=O)O` ? 7.4

What measured Permeability of each amino acid goes with `NCC(=O)O` ? 14.3

###

# Tested on: Human normal epidermal keratinocytes
# test: Amino acid deficient medium culturing test
# Type: cell-based
# condition.set: number of cells; named amino acid reduced to 10% by weight of general MCDB 153 medium concentration; 5 days culture; non-deficient medium = 100
Here, each record is paired with measured Relative ratio data.
// no unit string in output, number only

// solved cases for Relative ratio follow
NCCCC[C@H](N)C(=O)O | 9
O=C(O)[C@@H]1CCCN1 | 13
N[C@@H](CS)C(=O)O | 9

What measured Relative ratio goes with `CC(C)C[C@H](N)C(=O)O` ? 6

What measured Relative ratio goes with `NCC(=O)O` ? 9

###

# System: Human normal epidermal keratinocytes
# test: Amino acid deficient medium culturing test
# Type: cell-based
# condition.set: number of cells; named amino acid reduced to 10% by weight of general MCDB 153 medium concentration; 5 days culture; non-deficient medium = 100
# note: exactly 8 is not below, so it is not fulfilled; use fulfilled for Relative ratio strictly under it

See these solved cases before continuing.
N[C@@H](Cc1c[nH]cn1)C(=O)O | fulfilled
N[C@@H](CCC(=O)O)C(=O)O | not fulfilled
NC(=O)CC[C@H](N)C(=O)O | not fulfilled
CC[C@H](C)[C@H](N)C(=O)O | fulfilled

Decide: Relative ratio of `N[C@@H](Cc1c[nH]c2ccccc12)C(=O)O` strictly below 8? not fulfilled

Decide: Relative ratio of `N[C@@H](CC(=O)O)C(=O)O` strictly below 8? fulfilled
